- EXPERIMENT SUMMARY: Permeability study in MDCKII cells (bidirectional A to B and B to A)
- Format: in vitro ADME, Canine
- CONDITION DESCRIPTION: dog, MDCK, pH 7.4
- Method: MDCKII (Madin-Darby Canine Kidney cell line, wild type) cell was obtained from the Netherlands Cancer Institute, which was used for P-gp substrates or inhibitors screening and predicting the permeability of compounds with high efflux barriers such as duodenum, blood-brain barrier, hepatocyte nucleus and renal unit. […] The dose concentrations of test compounds and control compounds were 1 μM. The bidirectional (A to B and B to A) permeability was evaluated. […]
MEASURE: efflux ratio at 120 min, 1 μM

| MOLECULE | efflux ratio at 120 min, 1 μM |
| --- | --- |
| C=CCn1c(=O)c2cnc(Nc3ccc(N4CCN(CC5CCN(c6cccc7c6n(C)c(=O)n7C6CCC(=O)NC6=O)CC5)CC4)cc3)nc2n1-c1cccc(C(C)(C)O)n1 (stereo not drawn) | 0.94 |

P: C=CCn1c(=O)c2cnc(Nc3ccc(N4CCC(CN5CCC(c6cccc7c6n(C)c(=O)n7C6CCC(=O)NC6=O)CC5)CC4)cc3)nc2n1-c1cccc(C(C)(C)O)n1 (stereo not drawn)
Q: C=CCn1c(=O)c2cnc(Nc3ccc(N4CCN(CC5CCN(c6ccc(NC7CCC(=O)NC7=O)cc6F)CC5)CC4)cc3)nc2n1-c1ccc2c(n1)[C@@](O)(CC)CC2 (mixture of isomers)
Lookup: Two entries are listed, P and Q . Which one carries the higher efflux ratio at 120 min, 1 μM? # respond with the chosen item's label
Found: P
(P: 2.88, Q: 0.89)

Data origin: patent US20250049798A1
